# credit: patent US9403801B2

Test: Compound stability in human liver microsomes
Format: in vitro ADME
Conditions: human, liver microsomes, pH 7.4, Human liver microsomes 0.5 mg protein/mL, compound 5 μM, NADPH 1.0 mM, 37° C.
As shown below, each of these compounds has a reported half-life at 5 μM value.
Answer format: value, then unit.

Some compounds with recorded half-life at 5 μM:
Compound | half-life at 5 μM
CN(c1nc(Nc2cnn(C)c2)ncc1Cl)C1CCC2(CCNC2)CC1 (single isomer, unassigned) [Ex. 3.10A] | 5.24 h
N#CCC(=O)N1CCC2(CCC(Nc3nc(Nc4cnn(CC5CC5)c4)ncc3Cl)CC2)CC1 | 0.793 h
Cn1cc(Nc2ncc(Cl)c(NC3CCC4(CC3)CCN(S(C)(=O)=O)CC4)n2)cn1 | 1.4 h
CC(=O)N1CCC2(CCC(Nc3nc(Nc4cnn(C)c4)ncc3Cl)CC2)CC1 | 4.47 h
Cn1cc(Nc2ncc(Cl)c(NC3CCC4(CC3)CCN(c3ccc(C#N)cn3)CC4)n2)cn1 | 0.363 h
N#CCC(=O)N1CCC2(CCC(Nc3nc(Nc4cc(C5CC5)[nH]n4)ncc3Cl)CC2)CC1 | 0.647 h
Cc1cnc(Nc2cnn(C)c2)nc1NC1CCC2(CC1)CCN(C(=O)CC#N)CC2 | 8.69 h

Query: Which half-life at 5 μM value belongs to `Cn1cnc(Nc2ncc(Cl)c(NC3CCC4(CC3)CCN(C(=O)CC#N)CC4)n2)c1` ?
Result: 0.814 h

---

As shown below, each of these compounds has a reported half-life at 5 μM value.
Assay: Compound stability in rat liver microsomes
Format: in vitro ADME
Conditions: rat, liver microsomes, pH 7.4, Rat liver microsomes 0.5 mg protein/mL, compound 5 μM, NADPH 1.0 mM, 37° C.
Number in min, nothing else.

Some compounds with recorded half-life at 5 μM:
Compound | half-life at 5 μM [min]
Cc1cc(Nc2ncc(Cl)c(NC3CCC4(CC3)CCN(C(=O)CC#N)CC4)n2)nn1C [Ex. 37] | 68.9
Cn1cc(Nc2ncc(Cl)c(NC3CCC4(CC3)CCN(C(=O)C(F)(F)F)CC4)n2)cn1 [Ex. 30] | 24.2
Cn1cc(Nc2ncc(Cl)c(NC3CCC4(CC3)CCN(c3ccc(C#N)cn3)CC4)n2)cn1 [Ex. 27] | 9.2

Query: Which half-life at 5 μM value belongs to Cc1cnc(Nc2cnn(C)c2)nc1NC1CCC2(CC1)CCN(C(=O)CC#N)CC2 [Ex. 25] ?
Result: 16.8

Query: Which half-life at 5 μM value belongs to N#CCC(=O)N1CCC2(CCC(Nc3nc(Nc4cnn(CC5CC5)c4)ncc3Cl)CC2)CC1 [Ex. 48] ?
Result: 24.3

Query: Which half-life at 5 μM value belongs to CN(c1nc(Nc2cnn(C)c2)ncc1Cl)C1CCC2(CC1)CCN(C(=O)CC#N)C2 (single isomer, unassigned) [Ex. 4A] ?
Result: 12.4

Query: Which half-life at 5 μM value belongs to Cn1cnc(Nc2ncc(Cl)c(NC3CCC4(CC3)CCN(C(=O)CC#N)CC4)n2)c1 [Ex. 42] ?
Result: 31.5

Query: Which half-life at 5 μM value belongs to N#CCC(=O)N1CCC2(CCC(Nc3nc(Nc4cnn(CCO)c4)ncc3Cl)CC2)CC1 [Ex. 50] ?
Result: 308

---

Biological target: JAK1 (h) (Homo sapiens (Human))
Sequence (P23458 whole entry): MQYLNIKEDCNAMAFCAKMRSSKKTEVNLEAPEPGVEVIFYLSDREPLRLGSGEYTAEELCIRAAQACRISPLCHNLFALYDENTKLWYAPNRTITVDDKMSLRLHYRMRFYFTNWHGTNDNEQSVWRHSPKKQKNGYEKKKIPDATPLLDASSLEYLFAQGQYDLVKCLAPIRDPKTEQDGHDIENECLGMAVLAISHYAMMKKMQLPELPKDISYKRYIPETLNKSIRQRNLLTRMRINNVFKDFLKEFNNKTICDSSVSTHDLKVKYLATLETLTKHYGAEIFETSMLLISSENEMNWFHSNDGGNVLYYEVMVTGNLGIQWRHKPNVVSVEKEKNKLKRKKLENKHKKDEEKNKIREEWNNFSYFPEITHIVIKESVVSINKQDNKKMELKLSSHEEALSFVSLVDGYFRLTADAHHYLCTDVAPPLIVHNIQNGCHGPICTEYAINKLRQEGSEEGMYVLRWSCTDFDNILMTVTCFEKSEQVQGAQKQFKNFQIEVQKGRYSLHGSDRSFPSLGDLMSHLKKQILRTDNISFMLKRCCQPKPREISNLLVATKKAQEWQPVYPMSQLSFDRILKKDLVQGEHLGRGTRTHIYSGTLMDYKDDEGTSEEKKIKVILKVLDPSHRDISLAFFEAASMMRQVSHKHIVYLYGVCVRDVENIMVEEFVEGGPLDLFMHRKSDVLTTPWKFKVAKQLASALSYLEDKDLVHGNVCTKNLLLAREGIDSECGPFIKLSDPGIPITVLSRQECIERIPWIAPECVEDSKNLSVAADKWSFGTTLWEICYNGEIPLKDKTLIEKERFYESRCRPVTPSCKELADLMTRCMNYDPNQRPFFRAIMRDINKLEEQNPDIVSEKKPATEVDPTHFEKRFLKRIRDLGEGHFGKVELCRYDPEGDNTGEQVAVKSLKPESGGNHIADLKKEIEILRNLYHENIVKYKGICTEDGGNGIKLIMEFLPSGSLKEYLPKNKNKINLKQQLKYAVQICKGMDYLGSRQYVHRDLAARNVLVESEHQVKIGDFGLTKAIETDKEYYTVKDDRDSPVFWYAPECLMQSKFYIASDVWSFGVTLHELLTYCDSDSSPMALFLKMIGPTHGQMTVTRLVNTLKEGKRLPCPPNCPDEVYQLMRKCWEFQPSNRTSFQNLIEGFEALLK
Test readout: log10(IC50) (log10 of the value in nM)
Scale type: logarithmic (base 10). Underlying IC50 unit: nM.

Compound | Measurement
Cn1nc(C2CC2)cc1Nc1ncc(Cl)c(NC2CC3CN(C(=O)CC#N)CC3C2)n1 (centres unmarked) | 0.70
Cc1cc(Nc2ncc(Cl)c(NC3CCC4(CC3)CCN(C(=O)CC#N)CC4)n2)nn1C | 0.70
CN(c1nc(Nc2cnn(C)c2)ncc1Cl)C1CCC2(CCCN(C(=O)CC#N)C2)C1 (centres unmarked) | 0.48
Cn1cc(Nc2ncc(Cl)c(NC3CCC4(CC3)CCN(S(C)(=O)=O)CC4)n2)cn1 | 0.30
Cn1cc(Nc2ncc(Cl)c(NC3CCC4(CC3)CCN(C(=O)CC#N)C4)n2)cn1 (single isomer, unassigned) [Ex. 14A] | -0.10
Cn1cc(Nc2ncc(Cl)c(NC3CN(C(=O)CC#N)CC34CCCC4)n2)cn1 (centres unmarked) | 0.85
Cc1cnc(Nc2cnn(C)c2)nc1NC1CN(C(=O)CC#N)CC12CCCC2 (centres unmarked) | 1.04

Next compound, please.
Query: Which log10(IC50) value belongs to `N#CCC(=O)N1CCC2(CCC(Nc3nc(Nc4cnn(CCO)c4)ncc3Cl)CC2)CC1` ?
Result: 1.15
